This collection of values is drawn from patent EP3502109A1.

tested on: L. infantum axenic amastigotes; assay: Leishmanicidal activity on axenic amastigotes (PI exclusion, flow cytometry); format: cell-based; conditions: Leishmania infantum, 24 h
Counter-ions that a name gives are not always drawn.
Listing: EC50 of selected compounds
Use µM as the unit, but write only the number.

Please review the entries below; each comes with its answer.
C[n+]1nn(-c2ccc(-c3nc(CCc4ccc(-c5ccccc5)cc4)cs3)c(OCCN3CCNC3=O)c2)cc1CCCCN [Compound 10e] | 11.6
COc1cc(-n2cc(CCCCN)nn2)ccc1-c1nc(CCc2ccccc2)cs1 [Compound 8m, trifluoroacetate] | 7.1
NCCCCc1cn(-c2ccc(-c3nc(CCc4ccccc4)cs3)c(OCCN3CCNC3=O)c2)nn1 [Compound 8e, trifluoroacetate] | 13.9
C[n+]1nn(-c2ccc(-c3nc(CCc4ccc5ccccc5c4)cs3)c(OCCN3CCNC3=O)c2)cc1CCCCN [Compound 10c] | 12.9

In: So what does the record say about EC50 for CC(C)(C)Cc1csc(-c2ccc(-n3cc(CCCCN)nn3)cc2OCCN2CCNC2=O)n1 [Compound 8b, trifluoroacetate] ?
Out: 18.2

In: So what does the record say about EC50 for NCCCCc1cn(-c2ccc(-c3nc(CCc4ccc5ccccc5c4)cs3)c(OCCN3CCNC3=O)c2)nn1 [Compound 8g, trifluoroacetate] ?
Out: 23
